B1: CDC25A (parent)
chain: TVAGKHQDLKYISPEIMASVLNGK

Variants of: B1
Experiment: protein stability index of a GFP-peptide fusion (GPS, HEK-293T) (PSI 1-6); higher = more stable;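 also: lentivirally expressed fusions sorted by FACS into six bins by GFP to DsRed ratio, PSI derived from sequencing read proportions per bin multiplied by bin number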
Conditions: c terminus: a fixed tail appended
// reported protein stability index for each item listed
Could you respond with only the numeric value?

Answered examples (5):
TVAGKHQDLKYISPEIMASRLNGK [V20R] ... 3.99
TVAGKHQDKKYISPEIMASVLNGK [L9K] ... 3.74
TVAGKHADLKYISPEIMASVLNGK [Q7A] ... 2.85
TVAGKHQDLKYISPEIMASVLAGK [N22A] ... 2.92
TVLGKHQDLKYISPEIMASVLNGK [A3L] ... 2.69

Task: Sample TVAGKHQDLKYISPEIMASVLDGK [N22D] — what was its protein stability index?
Output: 3.54

The reported numbers originate from the supplement of paper PMC10567573.
